molecular target: Myc-GyrB-FGFR fusion protein (Homo sapiens); assay: Biochemical FGFR assay (ELISA); conditions: read-out: bio fgfR1 IC50
Sequence (P11362 478-767 limits assumed): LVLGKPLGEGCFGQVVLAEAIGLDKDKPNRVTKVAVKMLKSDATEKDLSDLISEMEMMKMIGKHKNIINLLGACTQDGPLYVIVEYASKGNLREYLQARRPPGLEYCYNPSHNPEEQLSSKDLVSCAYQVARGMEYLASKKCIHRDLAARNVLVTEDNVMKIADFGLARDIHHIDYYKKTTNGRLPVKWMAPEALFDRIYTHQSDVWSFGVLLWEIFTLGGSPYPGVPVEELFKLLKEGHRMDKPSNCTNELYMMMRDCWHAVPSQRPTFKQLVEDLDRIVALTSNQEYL
pIC50: −log10 of the molar value.
experimental_readout: pIC50

The cases that follow already have their pIC50 on record.
Consider the compound O=C(O)CCc1c(/C=C2\C(=O)Nc3cc(Cl)ccc32)[nH]c2c1CCCC2 [Example 195] and give its measured pIC50.
7.70

Same thing, different compound: CN(C)S(=O)(=O)c1ccc2c(c1)/C(=C/c1cc3ccccc3[nH]1)C(=O)N2 [Example 186]
4.98

Same thing, different compound: CNS(=O)(=O)c1ccc2c(c1)/C(=C/c1c[nH]c3ccccc13)C(=O)N2 [Example 178]
5.49

A. CCOC(=O)c1c(C)[nH]c(/C=C2\C(=O)Nc3ccc(Br)cc32)c1CCC(=O)O [Compound 114]
B. Cc1cc(CCC(=O)O)c(/C=C2\C(=O)Nc3ccc(Cl)cc32)[nH]1 [Example 111]
Among A and B , whose measured pIC50 is the smaller figure? Write down the label attached to your selection.
A
(A: 5.37, B: 6.33)
